B1: ALDH8A1 (parent)
chain: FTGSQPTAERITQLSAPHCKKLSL

variants of: B1; experiment: protein stability index of a GFP-peptide fusion (GPS, HEK-293T) (PSI 1-6); higher = more stable; details: c terminus: a fixed tail appended;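 note: lentivirally expressed fusions sorted by FACS into six bins by GFP to DsRed ratio, PSI derived from sequencing read proportions per bin multiplied by bin number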
The entries below are paired with their reported protein stability index.
Please reply with the number alone, leaving off any unit.

Answered examples (5):
Look up protein stability index: "Q5M"
2.19

Quick check: protein stability index of "L22V" ?
1.91

// returns reported protein stability index for input "H18A"
2.05

// protein stability index lookup, key: "E9M"
1.37

Param item = "A8I" ; retrieve measured protein stability index.
2.46

---
Look up protein stability index for this variant: "T2A"
2.38

Value lookup for protein stability index; key = "A16G"
2.5
